System: SN12C renal
Assay: NCI tumour cell line growth inhibition, 48 h
Provide the reported TGI of each item.

Compound	Subject of test	Reported metric	Measured result
CCOC(=O)/C=C/C(=O)O/C=C/[N+](=O)[O-]	SN12C renal	TGI	> 100 µM
Oc1cc(N2CC2)c(O)cc1N1CC1	SN12C renal	TGI	5.07 µM
CN(C)C1CCN(Cc2ccc(NC(=O)c3cncc(C#Cc4cnc(N)c5ncccc45)c3)cc2C(F)(F)F)CC1	SN12C renal	TGI	18.1 µM

List TGI for every entry below, keeping the order given.
1. CN1CCN(C(=O)CCC(=O)Nc2cc3c(c4ccccc24)-c2ccc4ccccc4c2C3)CC1
2. O=C(/C=C/C12c3ccccc3C(c3ccccc31)C1C(=O)N(c3ccc(Cl)cc3)C(=O)C12)c1ccccn1 (stereo not given)
3. CS(=O)(=O)N1CCC(n2c(=O)c(Oc3ccc(F)cc3F)cc3cnc(NC4CCOCC4)nc32)CC1
4. CN(C)Cc1c(O)ccc2c1c1c(n2C)C(=O)c2ccccc2C1=O
5. Nn1c(Nc2ccc(S(N)(=O)=O)cc2)nnc(/C=C/c2c(O)ccc3ccccc23)c1=O
6. CCc1ccccc1NC(=O)C(C#N)C1=C(Cl)C(=O)c2ccccc2C1=O (stereo not given)

Response:
["3.64 µM", "1.57 µM", "> 25 µM", "> 100 µM", "27.3 µM", "27.9 µM"]

List TGI for every entry below, keeping the order given.
1. C/C(=N\Nc1nc2cc(Cl)ccc2s1)c1ccccn1
2. COC(=O)CN(CC(=O)NCCCBr)C1CCCCC1N(CC(=O)OC)CC(=O)OC (stereo not given)
3. Cn1cc(C2=C(c3c4n(c5ccccc35)CCNC4)C(=O)NC2=O)c2ccccc21
4. Cc1nnc(N)nc1/C=C\c1ccc(Cl)cc1Cl

Response:
["15.2 µM", "> 100 µM", "> 25 µM", "> 100 µM"]
